Origin of the recorded values: the RNAGym collection of RNA variant scans (doi:10.1002/anie.201605470)

B1: Osa-1-4 twister ribozyme (parent)
chain: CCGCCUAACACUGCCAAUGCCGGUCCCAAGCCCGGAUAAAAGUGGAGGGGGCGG

Variants of: B1
Assay: self-cleavage, relative activity (ratio to wild type); higher = more cleavage; co-transcriptional
Readout Label: self-cleavage

>>> print(df.to_string())
    alteration  readout_label  observed_value
 0   G34A G35C  self-cleavage            0.29
 1   G34C G44C  self-cleavage            0.14
 2   C20U G47U  self-cleavage            0.29
 3   G22A G54U  self-cleavage            0.84
 4   C26G G13A  self-cleavage            0.03
 5   A29C G45U  self-cleavage            0.01
 6    A8C C25A  self-cleavage            0.05
 7   G13A G22U  self-cleavage            0.04
 8   U24G U37G  self-cleavage            0.04
 9   C11A C15G  self-cleavage             0.1
10   A39G G47A  self-cleavage            0.13
11   C15U G23A  self-cleavage            0.06
12   A39C A46U  self-cleavage            0.07
13   A10U G23U  self-cleavage            0.01
14   C27G C31U  self-cleavage            0.06
15   C11U U12A  self-cleavage             0.6
16   A16C G45A  self-cleavage            0.17
17   C20A G47A  self-cleavage            0.36
18   A38G A40G  self-cleavage             0.6
19   C11U C26U  self-cleavage             0.6
20   A28U A41C  self-cleavage            0.79
21   A39G G30U  self-cleavage            0.04
22   A38U U37G  self-cleavage            1.03
23   A10C C11A  self-cleavage             0.1
24   G23C G49A  self-cleavage            0.03
25   A38U A39C  self-cleavage            0.96
26   C31G G19C  self-cleavage            0.02
27   A36G U37A  self-cleavage            1.02
28   C25U C52U  self-cleavage             0.9
29    A8C G22A  self-cleavage            0.09
30   G22C G48U  self-cleavage            0.02
31   G13C G19U  self-cleavage            0.02
32   C14A G34U  self-cleavage            0.05
33   A38U C15A  self-cleavage            0.23
34   A46C G48U  self-cleavage            0.02
35    C20G C9A  self-cleavage            0.05
36   A29C G30A  self-cleavage            0.02
37   C15G C25A  self-cleavage            0.05
38   C15A C52A  self-cleavage            0.23
39   C15U G44U  self-cleavage            0.16
40   C21G G50A  self-cleavage            0.09
41   A16C U37G  self-cleavage            0.96
42    A41G C9G  self-cleavage            0.22
43    A7U U24A  self-cleavage            0.06
44   C21U G34C  self-cleavage            0.96
45   A10U A36U  self-cleavage            0.04
